tested.system: cortisol synthase (CYP11B1) (Macaca fascicularis)
pIC50: −log10 of the molar value.
observed.property: pIC50

Solved cases (5 shown):
INSERT INTO assay_data (compound, experimental_result) VALUES
  ('CN(Cc1cncc(C2COc3c(cccc3C(N)=O)O2)c1)C(=O)C1CC1 (single isomer, unassigned) [Cpd 24B]', 4.60),
  ('N#Cc1cccc2c1OCC(c1cncc(CN3CCOC3=O)c1)O2 (single isomer, unassigned) [Cpd 34A]', 5.07),
  ('CCOc1cncc(C2COc3c(cccc3C(N)=O)O2)c1 (single isomer, unassigned) [Cpd 45B]', 6.55),
  ('CC(=O)N1CCC(Oc2cncc(C3COc4c(C#N)cccc4O3)c2)CC1 (single isomer, unassigned) [Cpd 38B]', 6.15),
  ('NC(=O)c1cccc2c1OCC(c1cncc(F)c1)O2 (single isomer, unassigned) [Cpd 51A]', 5.92);

A: Cc1c(F)cncc1C1COc2c(cccc2C(N)=O)O1 (single isomer, unassigned) [Cpd 21A]
B: CS(=O)(=O)Cc1cncc(C2COc3c(cccc3C(N)=O)O2)c1 (single isomer, unassigned) [Cpd 8B]
Form field 'greater pIC50' accepts A or B ; which applies? Answer = label.
A
(A: 5.59, B: 4.89)

I: NC(=O)c1cccc2c1OCC(c1cncc(CN3CCOCC3=O)c1)O2 (single isomer, unassigned) [Cpd 15A]
II: NC(=O)c1cccc2c1OCC(c1cncc(C3(O)CCC3)c1)O2 (single isomer, unassigned) [Cpd 26A]
Kindly identify which of I and II has the larger recorded pIC50 value. Select an item and report its label.
II
(II: 5.74, I: 4.82)

a: NC(=O)c1cccc2c1OCC(c1cncc3c1CCC3O)O2 (single isomer, unassigned) [Cpd 52BA]
b: Cc1c(C(C)O)cncc1C1COc2c(cccc2C(N)=O)O1 (single isomer, unassigned) [Cpd 27B]
Looking at recorded values for pIC50, does a or b come in lower? Your choice should be expressed through its label.
a
(a: 4.80, b: 5.30)

A: CS(=O)(=O)COc1cncc(C2COc3c(C#N)cccc3O2)c1 (single isomer, unassigned) [Cpd 44A]
B: N#Cc1cccc2c1OCC(c1cncc(-c3ccc(S(N)(=O)=O)cc3)c1)O2 (single isomer, unassigned) [Cpd 40B]
I'd appreciate it if you could identify which of A and B has the greater pIC50. Pick one and reply with its label.
A

P: CNC(=O)c1cccc2c1OCC(c1cncc(C(F)(F)F)c1)O2 (single isomer, unassigned) [Cpd 28B]
Q: NC(=O)c1cccc2c1OCC(c1cncc(C3(O)CCC3)c1)O2 (single isomer, unassigned) [Cpd 26B]
In terms of reported pIC50, does P or Q have the smaller number? State your choice using its label.
P
(P: 5.21, Q: 6.17)
